Please go through the items and note down their TGI.
tested on: IGROV1 ovarian; experiment: NCI tumour cell line growth inhibition, 48 h

Before answering, review these 2 worked examples.
> print(dat)
                                   compound  endpoint.value
1          COc1cccc(N(CN2CC=CC2=O)C(C)=O)c1        > 100 µM
2  Fc1ccc(C2SCc3nc4ccccc4n32)cc1 (stereo not drawn)        > 100 µM

Moving on to another compound below.
Short answer for "O=C1c2c(n(Cc3ccccc3)c(=O)n2Cc2ccccc2)C(=O)N1Cc1ccccc1" : TGI was > 100 µM

----------
tested on: SK-MEL-2 melanoma; test: NCI tumour cell line growth inhibition, 48 h
attribute-measured: GI50

Before answering, review these 3 worked examples.
> print(dat)
                              line.notation  endpoint.value
1  C=CC(=O)N[C@H]1CCOC[C@H]1Nc1ncc2cc(-c3c(Cl)c(OC)cc(OC)c3Cl)ccc2n1         11.9 µM
2  O=C(Cc1cccc(OC(F)(F)F)c1)Nc1ccc(CCCCc2nnc(NC(=O)Cc3ccccn3)s2)nn1           19 µM
3  C=C1C(=O)O[C@H]2[C@H]1CC/C(COC(=O)NCCc1c[nH]c3ccc(OC)cc13)=C\CC[C@@]1(C)O[C@@H]21         1.84 µM

Moving on to another compound below.
Short answer for "CN1CCN(Cc2ccc(NC(=O)c3ccc(C#Cc4c(N)ncc5ccc(F)cc45)cc3)cc2C(F)(F)F)CC1" : GI50 was 1.08 µM
